Test system: up-regulation of ICAM-1 (CD54) by IFNγ in A549 lung epithelial cells
assay notes: A549 Epithelial Line Stimulated with IFNγ (ICAM-1 surface expression, FACS)
Type: cell-based, human
reported conditions: Homo sapiens, A549, A549 cells stimulated with IFNγ, ICAM-1 expression by FACS; read-out: IC50, Example 43
pIC50: −log10 of the molar value.
measurement label: pIC50

[
  {
    "smiles input": "COC(=O)c1ccc(Nc2nc(Nc3ccc(F)c(S(N)(=O)=O)c3)ncc2F)s1",
    "measurement label": "pIC50",
    "recorded result": 5.02
  },
  {
    "smiles input": "COc1ccc(Nc2nc(Nc3cc(Cl)c(C)c(S(N)(=O)=O)c3)ncc2F)cc1Cl",
    "measurement label": "pIC50",
    "recorded result": 5.08
  }
]

A. N#CCN1C(=O)CSc2ccc(Nc3nc(Nc4cccc(S(N)(=O)=O)c4)ncc3F)cc21
B. NS(=O)(=O)c1ccc(Nc2ncc(F)c(Nc3ccc(CCCO)cc3)n2)cc1
Qu. Of A and B , whose reported pIC50 is the larger number? Output the label that corresponds to your choice.
Ans. B
(B: 4.61, A: 4.27)

A. C#CCOc1ccc(Nc2nc(Nc3ccc(C)c(S(=O)(=O)NC)c3)ncc2F)cc1
B. Cc1ccc(Nc2ncc(F)c(Nc3ccc4oc(C#N)cc4c3)n2)cc1S(N)(=O)=O
Qu. # query: argmin of pIC50 over A and B Output the label that corresponds to your choice.
Ans. A
(A: 4.57, B: 5.26)

Origin of values: patent US11827628B2
